# target-under-test: His-tagged protein corresponding to amino acids 575-869 of human Tyk2 (Homo sapiens (Human))
# procedure-details: Probe displacement assay (scintillation proximity, radiolabeled probe)
# measurement-parameters: 2.5 nM Tyk2 (575-869), 40 nM [3H] probe, 30 minutes at room temperature
# pEC50 per record follows
The quantity pEC50 is defined as the negative base-10 logarithm of the molar concentration.

Some molecules with recorded pEC50:
CNC(=O)c1nnc(Nc2cnccn2)cc1Nc1cccc(-c2ncccn2)c1OC :: 8.71
CNC(=O)c1nnc(Nc2ccncn2)cc1Nc1cccc(-c2ncn(C)n2)c1OC :: 8.76
CNC(=O)c1nnc(NC(=O)C2CC2)cc1Nc1cccc(-c2nnc(C)s2)c1OC :: 7.05
CNC(=O)c1nnc(Nc2cc(C)nc(C)n2)cc1Nc1cccc(-c2ncn(C)n2)c1OC :: 8.84
CNC(=O)c1nnc(Nc2cc(C)n(C)n2)cc1Nc1cccc(-c2cnn(C)c2)c1OC :: 8.13

Q: Could you tell me which pEC50 is on file for CNC(=O)c1nnc(Nc2cc(NC(=O)C3CC3)nc(C)n2)cc1Nc1cccc(-c2ncn(C)n2)c1OC ?
A: 8.25

Q: Could you tell me which pEC50 is on file for CNC(=O)c1nnc(NC(=O)C2CC2)cc1Nc1cccc(-c2ccc(C)nn2)c1OC ?
A: 7.15

Q: Could you tell me which pEC50 is on file for CNC(=O)c1nnc(Nc2ccccn2)cc1Nc1cccc(-c2nnc(C)s2)c1OC ?
A: 8.15

Q: Could you tell me which pEC50 is on file for CNC(=O)c1nnc(Nc2ccccn2)cc1Nc1cccc(-c2nc(C)cs2)c1OC ?
A: 8.28

Q: Could you tell me which pEC50 is on file for CCNC(=O)c1nnc(Nc2ccc(F)cn2)cc1Nc1ccccc1S(C)(=O)=O ?
A: 6.89

Q: Could you tell me which pEC50 is on file for CS(=O)(=O)c1ccccc1Nc1cc(Nc2ccc(F)cn2)nnc1C(=O)NC1CC1 ?
A: 6.39

Q: Could you tell me which pEC50 is on file for CNC(=O)c1nnc(Nc2cc(C)c(F)cn2)cc1Nc1cccc(-c2n[nH]c(C)n2)c1OC ?
A: 8.16

Q: Could you tell me which pEC50 is on file for CNC(=O)c1nnc(NC(=O)C2CC2)cc1Nc1cccc(-c2nnn(C)n2)c1OC ?
A: 8.77

Q: Could you tell me which pEC50 is on file for CNC(=O)c1nnc(Nc2ccccn2)cc1Nc1cccc(-c2nnc(C)o2)c1OC ?
A: 8.14

Q: Could you tell me which pEC50 is on file for CNC(=O)c1nnc(Nc2ccccn2)cc1Nc1cccc(-c2ncn(C)n2)c1OC ?
A: 8.21

Q: Could you tell me which pEC50 is on file for CNC(=O)c1nnc(NC(=O)C2CC2)cc1Nc1cccc(-c2ncn(CC(F)F)n2)c1OC ?
A: 8.20

Q: Could you tell me which pEC50 is on file for CNC(=O)c1nnc(Nc2cc(C(C)O)ccn2)cc1Nc1cccc(-c2ncn(C)n2)c1OC (centres unmarked) ?
A: 8.89

Q: Could you tell me which pEC50 is on file for CNC(=O)c1nnc(Nc2ccc(CO)cn2)cc1Nc1cccc(-c2ncn(C)n2)c1OC ?
A: 8.80

Q: Could you tell me which pEC50 is on file for CNC(=O)c1nnc(NC(=O)C2CC2)cc1Nc1cccc(-c2cnc(C)s2)c1OC ?
A: 7.15

Q: Could you tell me which pEC50 is on file for CNC(=O)c1nnc(Nc2cc(COC)ccn2)cc1Nc1ccccc1S(C)(=O)=O ?
A: 8.14

Q: Could you tell me which pEC50 is on file for CNC(=O)c1nnc(Nc2ccccn2)cc1Nc1cccc(-c2nnn(C)n2)c1OC ?
A: 9.06

Q: Could you tell me which pEC50 is on file for CNC(=O)c1nnc(NC(=O)C2CC2)cc1Nc1cccc(-c2cnn(CCF)c2)c1OC ?
A: 7.22

Q: Could you tell me which pEC50 is on file for CNC(=O)c1nnc(NC(=O)C2CC2)cc1Nc1ccccc1OC ?
A: 6.96

---

# pEC50 per record follows
# target-under-test: His-tagged protein corresponding to amino acids 575-869 of human Tyk2 (Homo sapiens (Human), UniProt P29597)
# Sequence (P29597 other isoform, or with tags, fused parts or gaps): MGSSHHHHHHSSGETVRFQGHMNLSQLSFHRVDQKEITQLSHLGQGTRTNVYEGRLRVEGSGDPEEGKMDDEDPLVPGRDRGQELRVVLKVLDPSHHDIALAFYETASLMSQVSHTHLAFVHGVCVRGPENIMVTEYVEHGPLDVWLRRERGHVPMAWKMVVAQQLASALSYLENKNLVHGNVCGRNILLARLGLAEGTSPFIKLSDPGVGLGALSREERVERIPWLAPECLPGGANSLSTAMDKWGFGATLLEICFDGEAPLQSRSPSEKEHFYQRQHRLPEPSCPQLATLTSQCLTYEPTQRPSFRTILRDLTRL
# procedure-details: Probe displacement assay (scintillation proximity, radiolabeled probe)
# measurement-parameters: 2.5 nM Tyk2 (575-869), 40 nM [3H] probe, 30 minutes at room temperature
The quantity pEC50 is defined as the negative base-10 logarithm of the molar concentration.

Some compounds with recorded pEC50:
CNC(=O)c1nnc(Nc2cc(C)nc(C)n2)cc1Nc1cccc(-c2nc(C)n(C)n2)c1OC [Example 183] :: 8.24
CNC(=O)c1nnc(NC(=O)C2CC2)cc1Nc1cccc(-c2cc(C)no2)c1OC [Example 194] :: 7.10

Q: Could you tell me which pEC50 is on file for CNC(=O)c1nnc(Nc2ccccn2)cc1Nc1ccccc1S(C)(=O)=O [Example 16] ?
A: 8.18

Q: Could you tell me which pEC50 is on file for CNC(=O)c1nnc(Nc2cc(C)nc(COC)n2)cc1Nc1cccc(-c2ncn(C)n2)c1OC [Example 114] ?
A: 8.72
